The reported numbers originate from patent US20190263905A1.

Molecular target: T1, CD66c (CEACAM6) on CD66c-positive A549 non-small-cell lung cancer cells (UniProt P40199 35-320, limits assumed)
T1 construct: whole, on cells; also called CD66c antigen; NCA-90
T1 sequence (looked up): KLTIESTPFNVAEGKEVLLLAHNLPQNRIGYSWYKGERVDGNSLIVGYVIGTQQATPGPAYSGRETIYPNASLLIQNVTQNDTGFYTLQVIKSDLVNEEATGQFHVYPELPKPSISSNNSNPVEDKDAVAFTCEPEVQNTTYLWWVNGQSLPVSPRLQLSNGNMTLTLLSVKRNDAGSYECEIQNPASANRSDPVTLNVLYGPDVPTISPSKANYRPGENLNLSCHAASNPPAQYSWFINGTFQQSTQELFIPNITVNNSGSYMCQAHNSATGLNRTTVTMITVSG
Test: flow cytometry on CD66c-positive A549 cells, FITC anti-human IgG
Recorded metric: % gated (%)
Numbers only, in %.

Guide cases for % gated, answers given:
recombinant humanized anti-CD66c antibody Protein ID 3007 (Vk7 + VH6) (antibody, human IgG1, V domains shown, also called hu 3007; #43) VH: QVQLVQSGAEVKKPGASMKISCKASGYSFTDYTMNWVKQAPGQNLEWIGLINPFHGGTVSNQRFKVKATLTVDVSTNTAYMELSRLRSDDTAVYYCVRGDPVRHYYALAYWGQGTLVTVSS VL: DIQMTQSPSTLSASVGDRVTITCGASENVYGTLNWYQRKPGKAPKLLIYGATNLADGVPSRFSGSGSGTEYTLTISSLQPDDFATYYCQNVLSAPYTFGGGTKLEIK    71
recombinant humanized anti-CD66c antibody Protein ID 2938 (Vk5 + VH7) (antibody, human IgG1, V domains shown, also called hu 2938) VH: QVQLVQSGAEVKKPGASMKISCKASGYSFTDYTMNWVRQAPGQGLEWIGLINPFHGGTVSNQRFKVKATLTVDVSTNTAYMELSRLRSDDTAVYYCVRGDPVRHYYALAYWGQGTLVTVSS VL: DIQMTQSPSTLSASVGDRVTITCGASENVYGTLAWYQRKPGKAPKLLIYGATNLADGVPSRFSGSGSGREYTLTISSLQPDDFATYYCQNVLSAPYTFGGGTKLEIK    71
recombinant humanized anti-CD66c antibody Protein ID 3043 (Vk8 + VH6) (antibody, human IgG1, V domains shown, also called hu 3043; #71) VH: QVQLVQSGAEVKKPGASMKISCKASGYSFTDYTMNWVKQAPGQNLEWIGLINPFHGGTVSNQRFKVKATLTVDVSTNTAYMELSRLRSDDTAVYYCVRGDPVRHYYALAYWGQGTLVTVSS VL: DIQMTQSPSTLSASVGDRVTITCRASENVYGTLNWYQRKPGKAPKLLIYGATNLADGMPSRFSGSGSGTEYTLTISSLQPDDFATYYCQNVLSAPYTFGGGTKLEIK    69

Respectfully, I request % gated for each entry included below.
1. recombinant humanized anti-CD66c antibody Protein ID 3019 (Vk7 + VH10) (antibody, human IgG1, V domains shown, also called hu 3019; #51) VH: QVQLVQSGAEVKKPGASVKVSCKASGYSFTDYTMNWVKQAPGQNLEWIGLINPFHGGTVSNQRFKVKATMTVDVSTNTAYMELSRLRSDDTAVYYCVRGDPVRHYYALAYWGQGTLVTVSS VL: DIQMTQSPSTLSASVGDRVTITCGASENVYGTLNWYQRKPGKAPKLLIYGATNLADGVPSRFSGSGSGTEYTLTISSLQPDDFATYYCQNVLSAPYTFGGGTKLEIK
2. recombinant humanized anti-CD66c antibody Protein ID 3046 (Vk8 + VH7) (antibody, human IgG1, V domains shown, also called #74) VH: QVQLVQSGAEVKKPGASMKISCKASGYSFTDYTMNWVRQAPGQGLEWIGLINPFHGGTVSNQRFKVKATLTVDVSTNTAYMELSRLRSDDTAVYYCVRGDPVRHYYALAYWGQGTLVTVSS VL: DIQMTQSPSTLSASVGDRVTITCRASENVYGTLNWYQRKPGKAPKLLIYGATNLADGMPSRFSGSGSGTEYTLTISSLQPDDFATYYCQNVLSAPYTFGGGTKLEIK

Result:
70
71
